- system: Complement factor D (Homo sapiens)
- Sequence (P00746 whole entry): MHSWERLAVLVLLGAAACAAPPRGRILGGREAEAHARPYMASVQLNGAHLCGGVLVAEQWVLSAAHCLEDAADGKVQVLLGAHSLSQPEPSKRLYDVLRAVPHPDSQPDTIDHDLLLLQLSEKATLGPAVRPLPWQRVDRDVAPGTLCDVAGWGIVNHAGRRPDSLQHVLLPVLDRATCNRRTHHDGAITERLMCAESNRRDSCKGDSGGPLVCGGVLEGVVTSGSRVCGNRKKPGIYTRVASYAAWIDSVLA
- experimentNotes: In Vitro Assay: Method 1: Recombinant human factor D (expressed in E. coli and purified using standard methods) at 10 nM concentration is incubated with test compound at various concentrations for 1 hour at room temperature in 0.1 M Hepes buffer, pH 7.5, containing 1 mM MgCl2, 1 M NaCl and 0.05% CHAPS. A synthetic substrate Z-Lys-thiobenzyl and 2,4-dinitrobenzenesulfonyl-fluoresceine are added to final concentrations of 200 μM and 25 μM, respectively. The increase in fluorescence is recorded at excitation of 485 nm and emission at 535 nm in a microplate spectrofluorimeter. IC50 values are calculated from percentage of inhibition of complement factor D-activity as a function of test compound concentration.
readoutType: pIC50
Scale for pIC50: -log10 of concentration given in mol/L; no unit attached.

Tell me pIC50 reported for CC(C)=C(F)CNC(=O)[C@@H]1C[C@H]2C[C@H]2N1C(=O)Nc1cn(C(N)=O)c2ccccc12
7.62

Data credit: ChEMBL document CHEMBL3886955
